# TEST_DESCRIPTION: clinical
# EXPERIMENTAL_SETUP: human, in vivo, po, 10 mg, average Cmax of ibuprofen in the CSF
PARAMETER: Cmax (ng/mL)
Write the value in ng/mL as a bare number.

What value of Cmax has been recorded for this entry: CC(C)Cc1ccc(C(C)C(=O)O)cc1 (racemic)
3.94
